Please go through the items and note down their Relative potency (+ anion to no anion), Ratio + anion:no anion.
system: ARPE-19 non-cancer cells; test: Chemosensitivity, 96 h continuous exposure, MTT assay; type: cell-based, human; conditions: ratio of IC50, ARPE-19

# molecule, result
rows = [
    ("O=P(O)(O)Oc1ccccc1.[Zn+2].[Zn+2].[Zn+2].c1ccc(-c2csc(NCCN(CCNc3nc(-c4ccccn4)cs3)CCNc3nc(-c4ccccn4)cs3)n2)nc1.c1ccc(-c2csc(NCCN(CCNc3nc(-c4ccccn4)cs3)CCNc3nc(-c4ccccn4)cs3)n2)nc1 [[L2Zn3(O3POPh)]4+]", 1.46),
    ("O=S(=O)(O)O.[Zn+2].[Zn+2].[Zn+2].c1ccc(-c2csc(NCCN(CCNc3nc(-c4ccccn4)cs3)CCNc3nc(-c4ccccn4)cs3)n2)nc1.c1ccc(-c2csc(NCCN(CCNc3nc(-c4ccccn4)cs3)CCNc3nc(-c4ccccn4)cs3)n2)nc1 [[L2Zn3(SO4)]4+]", 1.08),
    ("CC(=O)[O-].CC(=O)[O-].CC(=O)[O-].O=P([O-])([O-])[O-].[Zn+2].[Zn+2].[Zn+2].c1ccc(-c2csc(NCCN(CCNc3nc(-c4ccccn4)cs3)CCNc3nc(-c4ccccn4)cs3)n2)nc1.c1ccc(-c2csc(NCCN(CCNc3nc(-c4ccccn4)cs3)CCNc3nc(-c4ccccn4)cs3)n2)nc1 [[L2Zn3(PO4)]3+]", 0.83),
]

Hey, can you go through the list below and give me Relative potency (+ anion to no anion), Ratio + anion:no anion for every item?
1. O=P([O-])([O-])Oc1ccccc1.[Cu+2].[Cu+2].[Cu+2].c1ccc(-c2csc(NCCN(CCNc3nc(-c4ccccn4)cs3)CCNc3nc(-c4ccccn4)cs3)n2)nc1.c1ccc(-c2csc(NCCN(CCNc3nc(-c4ccccn4)cs3)CCNc3nc(-c4ccccn4)cs3)n2)nc1 [[L2Cu3(O3POPh)]4+]
2. O=P([O-])([O-])[O-].[Cu+2].[Cu+2].[Cu+2].c1ccc(-c2csc(NCCN(CCNc3nc(-c4ccccn4)cs3)CCNc3nc(-c4ccccn4)cs3)n2)nc1.c1ccc(-c2csc(NCCN(CCNc3nc(-c4ccccn4)cs3)CCNc3nc(-c4ccccn4)cs3)n2)nc1 [[L2Cu3(PO4)]3+]
3. O=S(=O)([O-])[O-].[Cu+2].[Cu+2].[Cu+2].c1ccc(-c2csc(NCCN(CCNc3nc(-c4ccccn4)cs3)CCNc3nc(-c4ccccn4)cs3)n2)nc1.c1ccc(-c2csc(NCCN(CCNc3nc(-c4ccccn4)cs3)CCNc3nc(-c4ccccn4)cs3)n2)nc1 [[L2Cu3(SO4)]4+]

Response given:
1. 2.19
2. 3.11
3. 2.29

###

test system: ARPE-19 non-cancer cells; assay: Chemosensitivity, 96 h continuous exposure, MTT assay; type: cell-based, human; conditions: ARPE-19 non-cancer; read-out: Mean IC50 values
pIC50: −log10 of the molar value.
Decide by pIC50: equal to or exceeding 4 means 1, less means 0.

Worked examples follow.
# compound, answer-label
measured = [
    ("[Zn+2].c1ccc(-c2csc(NCCN(CCNc3nc(-c4ccccn4)cs3)CCNc3nc(-c4ccccn4)cs3)n2)nc1 [[LZn]2+]", 1),
    ("O=S(=O)(O)O.[Zn+2].[Zn+2].[Zn+2].c1ccc(-c2csc(NCCN(CCNc3nc(-c4ccccn4)cs3)CCNc3nc(-c4ccccn4)cs3)n2)nc1.c1ccc(-c2csc(NCCN(CCNc3nc(-c4ccccn4)cs3)CCNc3nc(-c4ccccn4)cs3)n2)nc1 [[L2Zn3(SO4)]4+]", 0),
    ("O=P(O)(O)Oc1ccccc1.[Zn+2].[Zn+2].[Zn+2].c1ccc(-c2csc(NCCN(CCNc3nc(-c4ccccn4)cs3)CCNc3nc(-c4ccccn4)cs3)n2)nc1.c1ccc(-c2csc(NCCN(CCNc3nc(-c4ccccn4)cs3)CCNc3nc(-c4ccccn4)cs3)n2)nc1 [[L2Zn3(O3POPh)]4+]", 0),
    ("CC(=O)[O-].CC(=O)[O-].CC(=O)[O-].O=P([O-])([O-])[O-].[Zn+2].[Zn+2].[Zn+2].c1ccc(-c2csc(NCCN(CCNc3nc(-c4ccccn4)cs3)CCNc3nc(-c4ccccn4)cs3)n2)nc1.c1ccc(-c2csc(NCCN(CCNc3nc(-c4ccccn4)cs3)CCNc3nc(-c4ccccn4)cs3)n2)nc1 [[L2Zn3(PO4)]3+]", 0),
    ("O=P([O-])([O-])[O-].[Cu+2].[Cu+2].[Cu+2].c1ccc(-c2csc(NCCN(CCNc3nc(-c4ccccn4)cs3)CCNc3nc(-c4ccccn4)cs3)n2)nc1.c1ccc(-c2csc(NCCN(CCNc3nc(-c4ccccn4)cs3)CCNc3nc(-c4ccccn4)cs3)n2)nc1 [[L2Cu3(PO4)]3+]", 0),
]

Below: the item to evaluate.
Challenge: Exam item: decide whether the reported pIC50 for [Cu+2].[Cu+2].[Cu+2].c1ccc(-c2csc(NCCN(CCNc3nc(-c4ccccn4)cs3)CCNc3nc(-c4ccccn4)cs3)n2)nc1.c1ccc(-c2csc(NCCN(CCNc3nc(-c4ccccn4)cs3)CCNc3nc(-c4ccccn4)cs3)n2)nc1 [[L2Cu3]6+] is at least 4.
Response given: 1

###

tested on: H460; assay: Chemosensitivity, 96 h continuous exposure, MTT assay; format: cell-based, human; details: ratio of IC50, H460
reported-property: Relative potency (+ anion to no anion), Ratio + anion:no anion
One number for each entry.

These solved cases illustrate the format of a correct answer.
# molecule, study-target, quantitative-result
data = [
    ("O=P(O)(O)Oc1ccccc1.[Zn+2].[Zn+2].[Zn+2].c1ccc(-c2csc(NCCN(CCNc3nc(-c4ccccn4)cs3)CCNc3nc(-c4ccccn4)cs3)n2)nc1.c1ccc(-c2csc(NCCN(CCNc3nc(-c4ccccn4)cs3)CCNc3nc(-c4ccccn4)cs3)n2)nc1 [[L2Zn3(O3POPh)]4+]", "H460", 0.77),
    ("O=P([O-])([O-])[O-].[Cu+2].[Cu+2].[Cu+2].c1ccc(-c2csc(NCCN(CCNc3nc(-c4ccccn4)cs3)CCNc3nc(-c4ccccn4)cs3)n2)nc1.c1ccc(-c2csc(NCCN(CCNc3nc(-c4ccccn4)cs3)CCNc3nc(-c4ccccn4)cs3)n2)nc1 [[L2Cu3(PO4)]3+]", "H460", 5.12),
]

Challenge: Would you kindly share the measured Relative potency (+ anion to no anion), Ratio + anion:no anion for O=S(=O)(O)O.[Zn+2].[Zn+2].[Zn+2].c1ccc(-c2csc(NCCN(CCNc3nc(-c4ccccn4)cs3)CCNc3nc(-c4ccccn4)cs3)n2)nc1.c1ccc(-c2csc(NCCN(CCNc3nc(-c4ccccn4)cs3)CCNc3nc(-c4ccccn4)cs3)n2)nc1 [[L2Zn3(SO4)]4+] ?
Response given: 0.65

###

test system: MiaPaCa2; experiment: Chemosensitivity, 96 h continuous exposure, MTT assay; type: cell-based, human; details: IC50 ARPE-19 / IC50 MiaPaCa2
Please go through the items and note down their Selectivity index (ARPE19).
Numbers only.

# molecule, study-target, Selectivity index (ARPE19)
rows = [
    ("O=P([O-])([O-])Oc1ccccc1.[Cu+2].[Cu+2].[Cu+2].c1ccc(-c2csc(NCCN(CCNc3nc(-c4ccccn4)cs3)CCNc3nc(-c4ccccn4)cs3)n2)nc1.c1ccc(-c2csc(NCCN(CCNc3nc(-c4ccccn4)cs3)CCNc3nc(-c4ccccn4)cs3)n2)nc1 [[L2Cu3(O3POPh)]4+]", "MiaPaCa2", 2.44),
]

Hey, can you go through the list below and give me Selectivity index (ARPE19) for every item?
1. O=S(=O)(O)O.[Zn+2].[Zn+2].[Zn+2].c1ccc(-c2csc(NCCN(CCNc3nc(-c4ccccn4)cs3)CCNc3nc(-c4ccccn4)cs3)n2)nc1.c1ccc(-c2csc(NCCN(CCNc3nc(-c4ccccn4)cs3)CCNc3nc(-c4ccccn4)cs3)n2)nc1 [[L2Zn3(SO4)]4+]
2. O=P(O)(O)Oc1ccccc1.[Zn+2].[Zn+2].[Zn+2].c1ccc(-c2csc(NCCN(CCNc3nc(-c4ccccn4)cs3)CCNc3nc(-c4ccccn4)cs3)n2)nc1.c1ccc(-c2csc(NCCN(CCNc3nc(-c4ccccn4)cs3)CCNc3nc(-c4ccccn4)cs3)n2)nc1 [[L2Zn3(O3POPh)]4+]
3. O=S(=O)([O-])[O-].[Cu+2].[Cu+2].[Cu+2].c1ccc(-c2csc(NCCN(CCNc3nc(-c4ccccn4)cs3)CCNc3nc(-c4ccccn4)cs3)n2)nc1.c1ccc(-c2csc(NCCN(CCNc3nc(-c4ccccn4)cs3)CCNc3nc(-c4ccccn4)cs3)n2)nc1 [[L2Cu3(SO4)]4+]
4. CC(=O)[O-].CC(=O)[O-].CC(=O)[O-].CC(=O)[O-].CC(=O)[O-].CC(=O)[O-].[Zn+2].[Zn+2].[Zn+2].c1ccc(-c2csc(NCCN(CCNc3nc(-c4ccccn4)cs3)CCNc3nc(-c4ccccn4)cs3)n2)nc1.c1ccc(-c2csc(NCCN(CCNc3nc(-c4ccccn4)cs3)CCNc3nc(-c4ccccn4)cs3)n2)nc1 [[L2Zn3]6+]
5. [Cu+2].[Cu+2].[Cu+2].c1ccc(-c2csc(NCCN(CCNc3nc(-c4ccccn4)cs3)CCNc3nc(-c4ccccn4)cs3)n2)nc1.c1ccc(-c2csc(NCCN(CCNc3nc(-c4ccccn4)cs3)CCNc3nc(-c4ccccn4)cs3)n2)nc1 [[L2Cu3]6+]

Response given:
1. 3.29
2. 4.94
3. 2.28
4. 2.66
5. 4.46

Hey, can you go through the list below and give me Selectivity index (ARPE19) for every item?
1. O=P([O-])([O-])[O-].[Cu+2].[Cu+2].[Cu+2].c1ccc(-c2csc(NCCN(CCNc3nc(-c4ccccn4)cs3)CCNc3nc(-c4ccccn4)cs3)n2)nc1.c1ccc(-c2csc(NCCN(CCNc3nc(-c4ccccn4)cs3)CCNc3nc(-c4ccccn4)cs3)n2)nc1 [[L2Cu3(PO4)]3+]
2. CC(=O)[O-].CC(=O)[O-].CC(=O)[O-].O=P([O-])([O-])[O-].[Zn+2].[Zn+2].[Zn+2].c1ccc(-c2csc(NCCN(CCNc3nc(-c4ccccn4)cs3)CCNc3nc(-c4ccccn4)cs3)n2)nc1.c1ccc(-c2csc(NCCN(CCNc3nc(-c4ccccn4)cs3)CCNc3nc(-c4ccccn4)cs3)n2)nc1 [[L2Zn3(PO4)]3+]

Response given:
[1.36, 2.94]
